The compounds listed here are annotated with their IC50.
Target: UniProtKB O14791
Sequence (O14791 1-398 S342G/I384M): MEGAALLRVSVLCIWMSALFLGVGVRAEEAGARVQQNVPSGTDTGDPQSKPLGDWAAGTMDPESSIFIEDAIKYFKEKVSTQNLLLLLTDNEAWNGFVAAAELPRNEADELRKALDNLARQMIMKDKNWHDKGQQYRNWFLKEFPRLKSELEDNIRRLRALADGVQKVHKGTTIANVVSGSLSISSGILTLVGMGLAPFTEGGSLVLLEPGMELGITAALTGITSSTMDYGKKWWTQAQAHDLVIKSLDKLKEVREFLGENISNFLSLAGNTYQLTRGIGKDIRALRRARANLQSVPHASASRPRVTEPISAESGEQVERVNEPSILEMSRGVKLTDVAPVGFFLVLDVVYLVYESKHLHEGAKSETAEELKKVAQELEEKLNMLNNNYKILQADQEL
Test: MultiTox-Fluor Multiplex Cytotoxicity Assay in tet-inducible APOL1 T-REx-HEK293 cells (cell rescue, ratio of dead to live cells)
Details: tet-inducible transgenic APOL1 T-REx-HEK293 cell lines, 50 ng/mL tet, 24 hours; read-out: IP50 (i.e., IC50 for cell proliferation)
Protocol: The MultiTox-Fluor Multiplex Cytotoxicity Assay is a single-reagent-addition, homogeneous, fluorescence assay that measures the number of live and dead cells simultaneously in culture wells. […] The MultiTox reagent was added to each well and placed back in the incubator for an additional 30 minutes. The plate was read on the EnVision plate reader. A ratio of dead to live cells was used to normalize, and data was imported, analyzed, and fit using Genedata Screener (Basel, Switzerland) software. […]

Record excerpt, results attached:
{"compound": "CCc1cc2c(s1)CCO[C@@]21CCN(CC2CN(C(=O)C3(O)CCOCC3)C2)[C@@H](C)C1", "readout-value": "< 100 nM"}
{"compound": "C[C@H]1C[C@@]2(CCN1Cc1cnn(C3CCS(=O)(=O)C3)c1)OCCc1c2sc(C(F)(F)F)c1CO (stereo partly shown)", "readout-value": "< 100 nM"}
{"compound": "CCc1cc2c(s1)CCO[C@@]21CCN(C[C@H]2C[C@@H](NC(=O)C3CCOC(C)(C)C3)C2)[C@@H](C)C1 (stereo partly shown)", "readout-value": "< 100 nM"}
{"compound": "C[C@H]1C[C@@]2(CCN1Cc1ccncc1F)OCCc1cc(Cl)sc12", "readout-value": "500 to 1000 nM"}
{"compound": "CCc1cc2c(s1)CCO[C@@]21CCN(Cc2cn(C(CC)C(=O)N3CCOCC3)nn2)[C@@H](C)C1 (stereo partly shown)", "readout-value": "100 to 500 nM"}

Lab note: `CCc1cc2c(s1)CCO[C@@]21CCN(CC2CN(C(=O)c3cc[nH]n3)C2)[C@@H](C)C1` gave IC50 of < 100 nM

Lab note: CCc1cc2c(s1)CCO[C@@]21CCN(C[C@H]2C[C@@H](NS(=O)(=O)CCC3NC(=O)NC3=O)C2)[C@@H](C)C1 (stereo partly shown) gave IC50 of 100 to 500 nM

* * *

biological target: APOL1 (Homo sapiens); assay: MultiTox-Fluor Multiplex Cytotoxicity Assay in tet-inducible APOL1 T-REx-HEK293 cells (cell rescue, ratio of dead to live cells); assay type: cell-based; conditions: tet-inducible transgenic APOL1 T-REx-HEK293 cell lines, 50 ng/mL tet, 24 hours; read-out: IP50 (i.e., IC50 for cell proliferation)
pIC50: −log10 of the molar value.
The compounds listed here are annotated with their pIC50.

Record excerpt, results attached:
{"compound": "CCc1cc2c(s1)CCO[C@@]21CCN(Cc2cn(Cc3cocn3)nn2)[C@@H](C)C1", "pIC50": "6.30 to 7.00"}
{"compound": "C[C@H]1C[C@@]2(CCN1Cc1cnn(CC3(O)CCCOC3)c1)OCCc1c2sc(C(F)(F)F)c1CO (stereo partly drawn)", "pIC50": "> 7.00"}
{"compound": "CCc1cc2c(s1)CCO[C@@]21CCN(Cc2cn(C(C)c3nncn3CCOC)nn2)[C@@H](C)C1 (stereo partly drawn)", "pIC50": "6.00 to 6.30"}
{"compound": "CCc1cc2c(s1)CCO[C@@]21CCN(Cc2cn(C(C)(C)C(=O)N3CCOCC3)nn2)[C@@H](C)C1", "pIC50": "6.00 to 6.30"}
{"compound": "C[C@H]1C[C@@]2(CCN1Cc1cnc(N3CCOCC3)nc1)OC[C@H](O)c1cc(Cl)sc12", "pIC50": "> 7.00"}

Lab note: `CCc1cc2c(s1)CCOC21CCN(Cc2cn(CCC(=O)NCCC(F)(F)F)nn2)CC1` gave pIC50 of 6.00 to 6.30

Lab note: `CCc1cc2c(s1)CCO[C@@]21CCN(Cc2cn(Cc3cnccn3)nn2)[C@@H](C)C1` gave pIC50 of 6.30 to 7.00

Lab note: CC(C)OC1CO[C@@]2(CCN(Cc3cnn(CCS(C)(=O)=O)c3)[C@@H](C)C2)c2sc(Cl)cc21 (stereo partly drawn) gave pIC50 of 6.30 to 7.00

Lab note: `C[C@H]1C[C@@]2(CCN1Cc1cnn(CCS(C)(=O)=O)c1)OC[C@](O)(C(F)F)c1cc(Cl)sc12` gave pIC50 of > 7.00

Lab note: CS(=O)(=O)CCn1cc(CN2CCC3(CC2C2CC2)OCCc2cc(Cl)sc23)cn1 (stereo not drawn) gave pIC50 of > 7.00

Lab note: `CCc1cc2c(s1)CCO[C@@]21CCN(Cc2cn(CCOCCOCCOCCO)nn2)[C@@H](C)C1` gave pIC50 of 6.30 to 7.00

Lab note: `Cc1ccc(CN2CC[C@]3(C[C@@H]2C)OC[C@H](O)c2cc(Cl)sc23)c(C)n1` gave pIC50 of 6.30 to 7.00

Lab note: C[C@H]1C[C@@]2(CCN1Cc1cnn(CCS(C)(=O)=O)c1)OCC(O)c1cc(C(F)(F)F)sc12 (single isomer, unassigned) [Compound 882] gave pIC50 of > 7.00

Lab note: `CCc1cc2c(s1)CCO[C@@]21CCN(C[C@H]2C[C@@H](NC(=O)CC3CS(=O)(=O)C3)C2)[C@@H](C)C1` gave pIC50 of > 7.00

Lab note: `CCc1cc2c(s1)CCO[C@@]21CCN(C[C@H]2C[C@@H](NC(=O)c3ccncc3C)C2)[C@@H](C)C1` gave pIC50 of > 7.00
